- System: OVCAR-8 ovarian
- PROTOCOL NOTES: NCI tumour cell line growth inhibition, 48 h

COMPOUND | TGI
CC1=C(C(=O)NNC(=O)Cc2ccccc2)CC(C(=O)NNC(=O)Cc2ccccc2)=C(C)N1 | > 100 µM
C=C1CCC2CC1C(C(=O)c1c[nH]c3ccccc13)=NC2(C)C (stereo unspecified) | > 100 µM
C/C(NNC(=O)c1ccccc1O)=C1\C=Nc2ccccc2S1 | > 100 µM
CN(C)CCCNC(=O)N/N=C/c1ccc(O)cc1 | > 100 µM
CC(C)N(C(=O)C12C3C4C1C1C2C3C41C(=O)C(C)(C)C)C(C)C (stereo unspecified) | > 100 µM
O=C1C=CC2(CCCCCCC2=O)CC1 (stereo unspecified) | > 100 µM

====

- Tested on: OVCAR-8 ovarian
- PROTOCOL NOTES: NCI tumour cell line growth inhibition, 48 h
Measured TGI by item
METRIC: TGI

COMPOUND | METRIC | ENDPOINT RESULT
O=[N+]([O-])c1cc(Br)cc2cc(Cl)cnc12 | TGI | > 100 µM
Cc1ccc2nc(N)[nH]c(=O)c2c1Sc1ccncc1 | TGI | > 100 µM
COc1cccc(/C=N/[N-]C(=O)c2ccncc2)c1[O-].[Mn+2].[OH3+] | TGI | > 100 µM
NC1=NN(c2ccccc2)C(=O)C1C(=O)C(=O)Nc1ccc(Cl)cc1 (stereo not given) | TGI | > 100 µM
CCC(=O)OC1CCn2c1nc1c2C(=O)C(C)=C(NC(C)=O)C1=O (stereo not given) | TGI | 2.09 µM
Cc1ccc2nc(NC(=O)C(=O)C(C(=O)c3ccc4ccccc4c3)C3OC(=O)c4ccccc43)sc2c1 (stereo not given) | TGI | 62.1 µM
CN(C)c1ccc(C(=S)c2ccc(N(C)C)cc2)cc1 | TGI | > 100 µM
CCCC(=O)OCC1OC2OC(C)(C)OC2C2OC(C)(C)OC12 (stereo not given) | TGI | > 100 µM
Nc1nc(N)c2c(n1)NC(c1sc(Cl)nc1Cl)CC(c1ccccc1)=N2 (stereo not given) | TGI | 22.2 µM
Cc1ccc(S(=O)(=O)N(CC(O)COc2ccccc2)c2c(F)c(F)cc(F)c2F)cc1 (stereo not given) | TGI | 49.7 µM
Cc1c(C)c2c(c(C)c1OC(=O)CCC(=O)[O-])CCC(C)(CCCCCCCCCCC[P+](c1ccccc1)(c1ccccc1)c1ccccc1)O2 (stereo not given) | TGI | 0.974 µM
COc1ccc(CN(CCN(C)C)c2ccccn2)cc1 (tested in a mixture with another compound) | TGI | > 100 µM
O=C1c2ccccc2N=C(c2cc3c(cc2Cl)Sc2nccn2S3(=O)=O)OS(=O)(=O)N1c1ccccc1 | TGI | 44.5 µM
CCCCCCCCCCC(=O)CCCCCCC(=O)O | TGI | 33.7 µM
C[C@@H]1CC[C@H]2[C@@H](C)C(O)O[C@@H]3O[C@]4(C)CC[C@@H]1[C@]32OO4 (stereo not given in full) | TGI | 12.7 µM
N/C(=N\N=C\c1cc2ccccc2s1)c1cnccn1 | TGI | > 100 µM
Cn1c(N/N=C/c2ccccc2)nc(-c2ccc3c(c2)OCO3)c(C#N)c1=O | TGI | 90.6 µM
CCOC(=O)c1c(N2CCCC2)[nH]c(=O)c(C(c2c(O)c(C(=O)OCC)c(N3CCCC3)[nH]c2=O)C(C)C)c1O | TGI | > 100 µM
COC(CNC(=O)CNC(=O)c1ccc(C(F)(F)F)cc1)OC | TGI | > 100 µM
CC(=O)N1C(C(=O)NN2CCOCC2)CSC1c1ccccc1 (stereo not given) | TGI | > 100 µM

# credit: PubChem BioAssay (NCI)
